TARGET_UNDER_TEST: TRPC3 (Homo sapiens)
Construct: expressed in transfected cells
Sequence (Q13507 74-921): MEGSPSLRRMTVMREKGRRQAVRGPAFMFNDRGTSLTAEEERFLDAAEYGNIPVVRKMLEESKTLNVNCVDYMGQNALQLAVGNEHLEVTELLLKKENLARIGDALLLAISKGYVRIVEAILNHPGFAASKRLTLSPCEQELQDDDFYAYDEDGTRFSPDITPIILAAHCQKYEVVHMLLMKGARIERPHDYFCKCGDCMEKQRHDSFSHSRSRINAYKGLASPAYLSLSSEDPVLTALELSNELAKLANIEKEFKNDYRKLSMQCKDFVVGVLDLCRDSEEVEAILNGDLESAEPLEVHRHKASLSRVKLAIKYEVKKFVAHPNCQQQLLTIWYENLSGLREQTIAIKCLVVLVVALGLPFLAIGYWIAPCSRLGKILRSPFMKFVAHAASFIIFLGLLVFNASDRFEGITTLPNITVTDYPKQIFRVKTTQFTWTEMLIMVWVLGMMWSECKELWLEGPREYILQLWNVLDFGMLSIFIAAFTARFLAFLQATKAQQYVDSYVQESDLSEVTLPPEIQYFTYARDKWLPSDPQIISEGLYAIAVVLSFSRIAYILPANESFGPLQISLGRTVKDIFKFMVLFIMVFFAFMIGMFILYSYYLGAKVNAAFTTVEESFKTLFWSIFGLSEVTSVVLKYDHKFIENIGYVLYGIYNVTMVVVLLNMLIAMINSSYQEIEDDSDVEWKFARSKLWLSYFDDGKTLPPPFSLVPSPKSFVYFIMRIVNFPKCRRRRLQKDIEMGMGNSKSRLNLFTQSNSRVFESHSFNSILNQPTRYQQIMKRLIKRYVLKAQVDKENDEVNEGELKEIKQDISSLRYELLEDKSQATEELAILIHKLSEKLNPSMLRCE
ASSAY_OVERVIEW: FLIPR Ca2+ fluorescence assay in inducible Flp-In T-REx-TRPC3 HEK 293 cells
Type: cell-based
EXPERIMENTAL_CONTEXT: doxycycline-induced cells, 30 μM OAG, mean±SEM, n=8; read-out: IC50, inhibition of OAG-activated fluorescence responses in TRPC3 expressing cells
QUANTITY_MEASURED: pIC50
Please report pIC50 as the negative decimal logarithm of the molar concentration, giving only the number.

Look up pIC50: COc1ccc(CCCOC(Cn2ccnc2)c2ccc(OC)cc2)cc1 (stereo not shown)
5.74
